Provide the reported CC50 of each item.
# measurement.protocol: Cytotoxicity against HEK293T cells assessed as reduction in cell viability incubated for 3 to 6 days by CCK8 assay
# Format: toxicity, cell-based, HEK-293T
# experimental.conditions: human, time 3-6 day
Quick note: give the figure in µM, leave out the unit.

Value lookup for CC50; key = O=C1C(Cl)=C(NCCc2cccc(F)c2)C(=O)c2ncccc21
5.5

Value lookup for CC50; key = O=C1C(Cl)=C(NCCN2CCOCC2)C(=O)c2ncccc21
4.4

---

# measurement.protocol: Tmax in male ICR mouse at 1 mg/kg, iv measured up to 24 hrs by LC-MS/MS analysis
# Format: ADME, organism-based
# experimental.conditions: in vivo
result.type: Tmax (min)
Quick note: give the figure in min, leave out the unit.

Value lookup for Tmax; key = O=C1C(Cl)=C(NCCc2cccc(F)c2)C(=O)c2ncccc21
6
